- system name: T1, N-terminally fluorescein isothiocyanate (FITC)-labelled GR25 (human, fluorescein isothiocyanate (FITC) on the N-terminus)
- T1 construct: C9orf72 repeat-derived dipeptide repeat; also called FITC-labeled GR25; FITC-GR25; source: synthetic peptide (Peptide Specialty Laboratories GmbH, HPLC-purified)
- T1 peptide: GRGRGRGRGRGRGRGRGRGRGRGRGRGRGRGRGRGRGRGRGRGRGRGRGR
- test: fluorescence polarisation; 100 nM FITC-labelled PR25/GR25 with increasing concentrations of p53 1-94 or p53 TAD2; room temperature; 20 mM Hepes pH 7.0, 50 mM NaCl, 2 mM TCEP, 0.04% NaN3; fit assuming a 1:1 complex
- test settings: both partners purified
experimental endpoint: pKd
Scale note: pKd = -log10(concentration in M).

Consider the binder SQAMDDLMLSPDDIEQWFTED (domain or fragment, UniProt P04637 37-57, looked up, human p53, amino acids 37 to 57 (TAD2 construct); 15N-labelled for NMR, unlabelled for fluorescence polarisation; source: E. coli BL21-DE3 Star, purified (lysis in 6 M urea, Ni-NTA, TEV cleavage, second Ni-NTA, SEC on Superdex Peptide)) [p53^TAD2 (human p53 transactivation domain 2, amino acids 37 to 57)] and give its measured pKd. 5.55

Just for reference, paper PMC8583712 is where these values come from.
